B1: Segment polarity protein dishevelled homolog DVL-3, residues 2 to 81; numbered along this chain, Q92997 (parent)
chain: GETKIIYHLDGQETPYLVKLPLPAERVTLADFKGVLQRPSYKFFFKSMDDDFGVVKEEISDDNAKLPCFNGRVVSWLVSA

Variants of: B1
Test: abundance fitness (aPCA) (normalised: wild type 0, dead -1); higher = more abundant; growth selection in yeast, the domain comes from the species named
Conditions: Homo sapiens
The following variants are shown together with reported abundance fitness values.
Please state the value as a number alone, without comment.

Would you please look over these solved cases?
inputSequence: GETKIIYHLDGQETPYLVKLPLPAERVTLADFKGVLQRPSYKFFFFSMDDDFGVVKEEISDDNAKLPCFNGRVVSWLVSA [K46F]
valueObserved: -0.488
//
inputSequence: GETKIIYHLDGQETPYLVKLPLPAERVTLADFKGVLQRPSYKFFFKSMDDDFGVVKEEISDDNAKLPCFNGRVVSWAVSA [L77A]
valueObserved: -1.11
//
inputSequence: GETKIIYHLDGQETPYLVKLPLPAERVTLADFKGLLQRPSYKFFFKSMDDDFGVVKEEISDDNAKLPCFNGRVVSWLVSA [V35L]
valueObserved: -0.164
//
inputSequence: GETKIIYHLDGQETPYLVKLPLPAERVTLADFKGVLQRPSYKFFFKSMDDCFGVVKEEISDDNAKLPCFNGRVVSWLVSA [D51C]
valueObserved: -0.191
//
inputSequence: GETKIIYHLDGQETPYLVKLPLPAERVTLADFKGVLQRPSYKFFFKSMDDDFGVVKEEISDDNAKLPCFNGRVVSWLWSA [V78W]
valueObserved: -0.228
//
inputSequence: GETKIIYHLDGQETPYLVKLPDPAERVTLADFKGVLQRPSYKFFFKSMDDDFGVVKEEISDDNAKLPCFNGRVVSWLVSA [L22D]
valueObserved: -0.574
//
inputSequence: GETKIIYHLDGQETPYLVKLLLPAERVTLADFKGVLQRPSYKFFFKSMDDDFGVVKEEISDDNAKLPCFNGRVVSWLVSA [P21L]
valueObserved: -0.758
//
inputSequence: GETKIIYHLDGQETPYLVKLPLPAERVTLADFKGVLQRPSNKFFFKSMDDDFGVVKEEISDDNAKLPCFNGRVVSWLVSA [Y41N]
valueObserved: -0.727
//
inputSequence: GETKIIYHLDGQETPYLVKLYLPAERVTLADFKGVLQRPSYKFFFKSMDDDFGVVKEEISDDNAKLPCFNGRVVSWLVSA [P21Y]
valueObserved: -0.693
//
inputSequence: GETKIIYHLDGQETPYLVKLPLPAERVTLADFKGVLQPPSYKFFFKSMDDDFGVVKEEISDDNAKLPCFNGRVVSWLVSA [R38P]
valueObserved: -0.341

# input Consider the variant GETKIIYHLDGQETPYLVKLPLPAERVTLADFKGVLQRPSYKFFFKSMDDDFGVVKEEISDDNAQLPCFNGRVVSWLVSA [K65Q] and give its measured abundance fitness.
# output 0.127

# input Consider the variant GETKIIYHLDGQETPYLVKLPLPAERVTLYDFKGVLQRPSYKFFFKSMDDDFGVVKEEISDDNAKLPCFNGRVVSWLVSA [A30Y] and give its measured abundance fitness.
# output -0.468
